assay-summary: total protein half-life in vivo (active degradation + dilution); higher = more stable protein
experimental-context: wild type E. coli NCM3722; growth: N-lim chemostat; doubling time 12 h
value-kind: total protein half-life in vivo (h)
// note: answer is a bare numeric in h

Input: Report total protein half-life in vivo for "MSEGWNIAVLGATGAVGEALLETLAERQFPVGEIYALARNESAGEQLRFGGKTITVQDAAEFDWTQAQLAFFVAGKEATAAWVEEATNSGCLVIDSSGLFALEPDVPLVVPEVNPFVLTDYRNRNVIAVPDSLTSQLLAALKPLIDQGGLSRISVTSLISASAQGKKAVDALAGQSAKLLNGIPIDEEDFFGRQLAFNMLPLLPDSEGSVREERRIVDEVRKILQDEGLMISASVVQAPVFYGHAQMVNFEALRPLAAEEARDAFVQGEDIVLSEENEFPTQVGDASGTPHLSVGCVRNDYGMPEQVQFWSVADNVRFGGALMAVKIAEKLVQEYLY" please.
Output: 8.99

Input: Please do the same for "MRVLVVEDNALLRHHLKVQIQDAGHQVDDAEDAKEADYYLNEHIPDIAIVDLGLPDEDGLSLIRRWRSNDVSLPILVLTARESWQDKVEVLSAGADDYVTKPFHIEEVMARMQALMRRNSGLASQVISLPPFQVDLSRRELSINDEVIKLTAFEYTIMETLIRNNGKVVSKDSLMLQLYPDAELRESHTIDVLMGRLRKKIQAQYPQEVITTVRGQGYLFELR" as well.
Output: 7.55

Input: Next up: MTQPMPGKPAEDAENELDIRGLFRTLWAGKLWIIGMGLAFALIALAYTFFARQEWSSTAITDRPTVNMLGGYYSQQQFLRNLDVRSNMASADQPSVMDEAYKEFVMQLASWDTRREFWLQTDYYKQRMVGNSKADAALLDEMINNIQFIPGDFTRAVNDSVKLIAETAPDANNLLRQYVAFASQRAASHLNDELKGAWAARTIQMKAQVKRQEEVAKAIYDRRMNSIEQALKIAEQHNISRSATDVPAEELPDSEMFLLGRPMLQARLENLQAVGPAFDLDYDQNRAMLNTLNVGPTLDPRFQTYRYLRTPEEPVKRDSPRRAFLMIMWGIVGGLIGAGVALTRRCSK [P0AG00]
Output: 12.9

Input: Next sequence: "MKQTVYIASPESQQIHVWNLNHEGALTLTQVVDVPGQVQPMVVSPDKRYLYVGVRPEFRVLAYRIAPDDGALTFAAESALPGSPTHISTDHQGQFVFVGSYNAGNVSVTRLEDGLPVGVVDVVEGLDGCHSANISPDNRTLWVPALKQDRICLFTVSDDGHLVAQDPAEVTTVEGAGPRHMVFHPNEQYAYCVNELNSSVDVWELKDPHGNIECVQTLDMMPENFSDTRWAADIHITPDGRHLYACDRTASLITVFSVSEDGSVLSKEGFQPTETQPRGFNVDHSGKYLIAAGQKSHHISVYEIVGEQGLLHEKGRYAVGQGPMWVVVNAH"
Output: 9.37

Input: Please answer likewise for "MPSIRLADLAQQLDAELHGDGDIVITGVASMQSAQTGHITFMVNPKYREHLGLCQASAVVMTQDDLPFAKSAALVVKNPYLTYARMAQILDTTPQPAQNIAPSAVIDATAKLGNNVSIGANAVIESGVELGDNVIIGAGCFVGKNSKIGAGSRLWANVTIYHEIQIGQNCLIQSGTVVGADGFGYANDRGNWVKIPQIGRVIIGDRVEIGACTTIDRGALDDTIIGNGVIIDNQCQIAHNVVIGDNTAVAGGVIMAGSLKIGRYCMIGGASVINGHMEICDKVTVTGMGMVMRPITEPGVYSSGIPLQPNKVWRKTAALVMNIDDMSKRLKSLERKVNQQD"
Output: 9.29
